- tgt: 5-HT1B receptor (Homo sapiens (Human), UniProt P28222)
- Sequence (P28222 whole entry, looked up): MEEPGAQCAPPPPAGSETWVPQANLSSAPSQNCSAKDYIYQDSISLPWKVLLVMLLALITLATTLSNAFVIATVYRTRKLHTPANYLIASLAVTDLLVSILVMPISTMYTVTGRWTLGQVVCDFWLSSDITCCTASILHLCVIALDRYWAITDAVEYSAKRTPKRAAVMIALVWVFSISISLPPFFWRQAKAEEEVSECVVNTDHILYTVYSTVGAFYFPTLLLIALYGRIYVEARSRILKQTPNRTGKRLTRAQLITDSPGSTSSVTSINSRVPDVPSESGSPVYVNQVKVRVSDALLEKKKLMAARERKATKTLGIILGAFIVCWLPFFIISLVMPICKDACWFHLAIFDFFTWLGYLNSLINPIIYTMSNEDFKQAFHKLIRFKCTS
- assay procedure: cAMP accumulation agonist assay at 5-HT1B
- Format: cell-based
recorded metric: 5-HT1B % Act @ Max Dose (%)

# compound, recorded metric, data value
records = [
    ("CCN(CC)C(=O)[C@@H]1C=C2c3cccc4[nH]cc(c34)C[C@H]2N(Cc2ccc(OC)cc2)C1 [Compound 19]", "5-HT1B % Act @ Max Dose", 71.08),
    ("CCN(CC)C(=O)[C@@H]1C=C2c3cccc4[nH]cc(c34)C[C@H]2N(C)C1 [LSD, lysergic acid diethylamide, reference compound]", "5-HT1B % Act @ Max Dose", 98.03),
    ("CCN(CC)C(=O)[C@@H]1C=C2c3cccc4[nH]cc(c34)C[C@H]2N(CCc2ccccn2)C1 [Compound 23]", "5-HT1B % Act @ Max Dose", 83.68),
    ("CCCN1C[C@H](C(=O)NC(CC)CC)C=C2c3cccc4[nH]cc(c34)C[C@H]21 [Compound 6]", "5-HT1B % Act @ Max Dose", 94.62),
    ("CCCN1C[C@H](C(=O)N2[C@@H](C)C[C@@H]2C)C=C2c3cccc4[nH]cc(c34)C[C@H]21 [Compound 4]", "5-HT1B % Act @ Max Dose", 96),
    ("CCN(CC)C(=O)[C@@H]1C=C2c3cccc4[nH]cc(c34)C[C@H]2N(Cc2ccccc2OC)C1 [Compound 10]", "5-HT1B % Act @ Max Dose", 87.29),
    ("CCN(CC)C(=O)[C@@H]1C=C2c3cccc4[nH]cc(c34)C[C@H]2N(CCc2ccccc2OC)C1 [Compound 11]", "5-HT1B % Act @ Max Dose", 47.01),
    ("CCCN1C[C@H](C(=O)N[C@H](C)CC)C=C2c3cccc4[nH]cc(c34)C[C@H]21 [Compound 3]", "5-HT1B % Act @ Max Dose", 98.66),
    ("CCN(CC)C(=O)[C@@H]1C=C2c3cccc4[nH]cc(c34)C[C@H]2N(Cc2cccc(OC)c2)C1 [Compound 18]", "5-HT1B % Act @ Max Dose", 83.31),
    ("CCN(CC)C(=O)[C@@H]1C=C2c3cccc4[nH]cc(c34)C[C@H]2N(CCc2cccc(OC)c2)C1 [Compound 20]", "5-HT1B % Act @ Max Dose", 34.59),
    ("CCN(CC)C(=O)[C@@H]1C=C2c3cccc4[nH]cc(c34)C[C@H]2N(Cc2ccccc2O)C1 [Compound 16]", "5-HT1B % Act @ Max Dose", 90.1),
    ("CCN(CC)C(=O)[C@@H]1C=C2c3cccc4[nH]cc(c34)C[C@H]2N(CC2CC2)C1 [Compound 13]", "5-HT1B % Act @ Max Dose", 90.43),
    ("CCN(CC)C(=O)[C@@H]1C=C2c3cccc4[nH]cc(c34)C[C@H]2N(CCc2ccc(OC)cc2)C1 [Compound 21]", "5-HT1B % Act @ Max Dose", 79.13),
    ("CCN(CC)C(=O)[C@@H]1C=C2c3cccc4[nH]cc(c34)C[C@H]2N(Cc2ccccn2)C1 [Compound 22]", "5-HT1B % Act @ Max Dose", 89.15),
    ("CCCN1C[C@H](C(=O)N(CC)CC)C=C2c3cccc4[nH]cc(c34)C[C@H]21 [Compound 1]", "5-HT1B % Act @ Max Dose", 96.6),
    ("CCN(CC)C(=O)[C@@H]1C=C2c3cccc4[nH]cc(c34)C[C@H]2N(CCCF)C1 [Compound 2]", "5-HT1B % Act @ Max Dose", 89.97),
    ("CCN(CC)C(=O)[C@@H]1C=C2c3cccc4[nH]cc(c34)C[C@H]2N(CCC(F)(F)F)C1 [Compound 12]", "5-HT1B % Act @ Max Dose", 95.51),
]
